pKi: −log10 of the molar value.
A compilation of published pKi results with Vasopressin V1b receptor (Homo sapiens, UniProt P47901).
Sequence (P47901 whole entry): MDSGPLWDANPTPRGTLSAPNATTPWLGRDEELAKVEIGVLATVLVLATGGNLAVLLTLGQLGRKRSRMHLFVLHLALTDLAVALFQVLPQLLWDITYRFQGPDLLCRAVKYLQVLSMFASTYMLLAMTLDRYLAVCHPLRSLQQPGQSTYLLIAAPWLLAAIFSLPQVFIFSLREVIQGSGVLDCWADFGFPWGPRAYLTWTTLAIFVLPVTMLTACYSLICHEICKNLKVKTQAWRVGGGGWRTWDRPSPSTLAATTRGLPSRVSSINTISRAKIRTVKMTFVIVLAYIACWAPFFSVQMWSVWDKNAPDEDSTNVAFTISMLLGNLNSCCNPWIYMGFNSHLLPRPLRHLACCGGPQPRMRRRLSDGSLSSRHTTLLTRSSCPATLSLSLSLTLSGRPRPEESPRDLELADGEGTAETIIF

Guide cases for pKi, answers given:
[[record]]
molecule = "CCOc1ncccc1C1(NCc2cccc(N3CCN(C)CC3)c2)C(=O)N(S(=O)(=O)c2ccccc2OC)c2ccc(I)cc21 (stereo not shown)"
experimental_target = "Vasopressin V1b receptor (Homo sapiens, UniProt P47901)"
assay_result = "8.00 to 9.00"

[[record]]
molecule = "COc1ccc(S(=O)(=O)N2C(=O)C(c3cc(CN(C)C)ccc3OC)(N3CCCC3c3ccccn3)c3cc(Cl)ccc32)cc1 (stereo not shown)"
experimental_target = "Vasopressin V1b receptor (Homo sapiens, UniProt P47901)"
assay_result = "6.00 to 7.00"

[[record]]
molecule = "CCOc1ccc(CNC)cc1C1(N2CCC[C@H]2c2ncco2)C(=O)N(S(=O)(=O)c2ccc(OC)cc2)c2ccc(Cl)cc21 (stereo partly shown)"
experimental_target = "Vasopressin V1b receptor (Homo sapiens, UniProt P47901)"
assay_result = "7.00 to 8.00"

[[record]]
molecule = "COc1ccc(S(=O)(=O)N2C(=O)C(c3cc(CN4CCC4)ccc3OC)(N3CCC[C@H]3c3ncco3)c3cc(Cl)ccc32)cc1 (single isomer, unassigned)"
experimental_target = "Vasopressin V1b receptor (Homo sapiens, UniProt P47901)"
assay_result = "> 8.00"

[[record]]
molecule = "COc1ccc(S(=O)(=O)n2c(=O)n(C(C(=O)N3CCN(c4ccncc4)CC3)c3ccccc3)c3cc(C#N)ccc32)cc1 (stereo not shown)"
experimental_target = "Vasopressin V1b receptor (Homo sapiens, UniProt P47901)"
assay_result = "6.30 to 7.00"

[[record]]
molecule = "CCOc1ccccc1C1(N2CCN(c3ccnc(CC)c3)CC2)C(=O)N(S(=O)(=O)c2cccc3cccnc23)c2ccc(C#N)cc21 (racemic)"
experimental_target = "Vasopressin V1b receptor (Homo sapiens, UniProt P47901)"
assay_result = "7.30 to 8.00"

[[record]]
molecule = "CCOc1ccc(CN2CCN(C)CC2)cc1C1(N2CCC[C@H]2c2ncco2)C(=O)N(S(=O)(=O)c2ccc(OC)cc2)c2ccc(Cl)cc21 (stereo partly shown)"
experimental_target = "Vasopressin V1b receptor (Homo sapiens, UniProt P47901)"
assay_result = "7.00 to 8.00"

[[record]]
molecule = "CCOc1ccc(OC)cc1C1(N2CCC(N3CCN(CC)CC3)CC2)C(=O)N(S(=O)(=O)c2ccc(OC)cn2)c2ccc(C#N)cc21 (racemic)"
experimental_target = "Vasopressin V1b receptor (Homo sapiens, UniProt P47901)"
assay_result = "7.30 to 8.00"

[[record]]
molecule = "CCOc1ncccc1C1(OC(=O)N2CCN(C3CCN(C)CC3)CC2)C(=O)N(S(=O)(=O)c2ccccc2)c2ccc(C#N)cc21 (racemic)"
experimental_target = "Vasopressin V1b receptor (Homo sapiens, UniProt P47901)"
assay_result = "> 8.00"

[[record]]
molecule = "COc1ccc(S(=O)(=O)N2C(=O)C(c3ccc(CN4CCN(C)CC4)cc3OC)(N3CCC[C@H]3c3ncco3)c3cc(Cl)ccc32)cc1 (stereo partly shown)"
experimental_target = "Vasopressin V1b receptor (Homo sapiens, UniProt P47901)"
assay_result = "> 8.00"


Test item CCOc1ncccc1C1(NC(=O)N2CCN(C3CCN(C)CC3)CC2)C(=O)N(S(=O)(=O)c2ccc(OC)cc2OC)c2cc(F)c(Cl)cc21 (stereo not shown) ; Vasopressin V1b receptor (Homo sapiens, UniProt P47901); reported pKi was > 9.00

Test item COc1ccc(S(=O)(=O)n2c(=O)n(C(C(=O)N3CCN(C4CCN(C)CC4)CC3)c3ccccc3)c3ccc(Cl)cc32)c(OC)c1 (stereo not shown) ; Vasopressin V1b receptor (Homo sapiens, UniProt P47901); reported pKi was 5.00 to 6.30

Test item CCOc1ncccc1[C@]1(NC(=O)N2CC(N3CCC(N4CC(OC)C4)CC3)C2)C(=O)N(S(=O)(=O)c2ccc(OC)cc2OC)c2ccc(C#N)cc21 ; Vasopressin V1b receptor (Homo sapiens, UniProt P47901); reported pKi was 8.00 to 9.00
